# Test target: ncNOS (Homo sapiens, UniProt P29475)
# Sequence (P29475 whole entry): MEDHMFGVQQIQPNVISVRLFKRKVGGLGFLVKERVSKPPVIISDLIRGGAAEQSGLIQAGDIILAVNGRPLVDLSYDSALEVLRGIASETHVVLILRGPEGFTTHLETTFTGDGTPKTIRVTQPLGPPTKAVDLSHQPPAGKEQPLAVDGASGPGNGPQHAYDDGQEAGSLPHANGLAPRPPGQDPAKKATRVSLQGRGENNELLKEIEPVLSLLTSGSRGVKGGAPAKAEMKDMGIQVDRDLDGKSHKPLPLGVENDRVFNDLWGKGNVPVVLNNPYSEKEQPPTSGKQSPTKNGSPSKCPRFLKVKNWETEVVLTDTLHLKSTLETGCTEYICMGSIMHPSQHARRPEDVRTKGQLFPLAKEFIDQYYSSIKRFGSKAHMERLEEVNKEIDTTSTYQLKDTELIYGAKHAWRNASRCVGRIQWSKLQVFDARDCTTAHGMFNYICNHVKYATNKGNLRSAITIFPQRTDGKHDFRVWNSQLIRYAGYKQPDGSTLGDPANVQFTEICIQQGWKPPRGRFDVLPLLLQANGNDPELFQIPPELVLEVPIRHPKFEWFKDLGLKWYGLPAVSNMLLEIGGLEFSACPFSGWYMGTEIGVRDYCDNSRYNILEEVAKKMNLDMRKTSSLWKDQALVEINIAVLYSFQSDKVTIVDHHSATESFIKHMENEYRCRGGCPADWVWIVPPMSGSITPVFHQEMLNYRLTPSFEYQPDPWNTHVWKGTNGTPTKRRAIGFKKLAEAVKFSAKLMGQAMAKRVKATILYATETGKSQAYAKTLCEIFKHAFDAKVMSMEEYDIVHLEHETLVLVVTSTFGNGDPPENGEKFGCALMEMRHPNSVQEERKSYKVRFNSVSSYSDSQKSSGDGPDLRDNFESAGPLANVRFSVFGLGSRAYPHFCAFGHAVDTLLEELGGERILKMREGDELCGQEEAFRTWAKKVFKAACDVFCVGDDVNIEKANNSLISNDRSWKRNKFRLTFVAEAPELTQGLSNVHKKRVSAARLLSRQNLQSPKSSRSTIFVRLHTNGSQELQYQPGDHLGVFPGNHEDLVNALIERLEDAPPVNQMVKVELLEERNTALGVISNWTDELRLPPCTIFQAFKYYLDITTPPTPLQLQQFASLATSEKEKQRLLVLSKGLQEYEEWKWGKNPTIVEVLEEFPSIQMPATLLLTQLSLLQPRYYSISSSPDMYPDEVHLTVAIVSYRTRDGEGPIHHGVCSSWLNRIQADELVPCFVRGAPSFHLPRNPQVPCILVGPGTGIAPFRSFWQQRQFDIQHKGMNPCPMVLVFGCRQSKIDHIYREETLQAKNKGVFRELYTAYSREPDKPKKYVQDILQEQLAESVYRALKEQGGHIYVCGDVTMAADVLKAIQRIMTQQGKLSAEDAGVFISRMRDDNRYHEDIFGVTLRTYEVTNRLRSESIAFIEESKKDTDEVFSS
# Experiment notes: biochemical
# Measurement conditions: Table 4; read-out: IC50 ncNOS
Counter-ions that a name gives are not always drawn.

| Compound | IC50 |
| --- | --- |
| CC(C)C1CN=C(N)C1 (stereo not drawn) [Table 4: H, i-C3H7, H, H, H, hydrochloride] | ≤ 50 µM |
| CC1CN=C(N)C1C (stereo not drawn) [Table 4: CH3, CH3, H, H, H, hydrochloride] | ≤ 1 µM |
| CC(=O)OC[C@H]1CCC(=N)N1 [Table 4: H, H, (R)-CH2OAc, H, H, hydrochloride] | > 50 µM |
| CCCC1N=C(N)CC1C (stereo not drawn) [Table 4: H, CH3, n-C3H7, H, H, hydrochloride] | ≤ 10 µM |
| CC1CC(N)=NC1C (single isomer, unassigned) [Table 4: H, CH3, CH3(B), H, H] | ≤ 1 µM |
| N=C(N)CCNC(=O)C1CCC(=N)N1 (stereo not drawn) | < 10 µM |
| CCCC1CC(N)=NC1CC (stereo not drawn) [Table 4: H, n-C3H7, C2H5, H, H, hydrochloride] | ≤ 50 µM |
| CCC1CCC(=N)N1 (stereo not drawn) | ≤ 10 µM |
| CCC1CC(N)=NC1C (stereo not drawn) [Table 4: H, C2H5, CH3, H, H, hydrochloride] | ≤ 1 µM |

###

# Test target: ncNOS (Homo sapiens, UniProt P29475)
# Experiment notes: biochemical
# Measurement conditions: Table 5; read-out: IC50 ncNOS
Structures can show the parent of a compound that is named as a salt.
Metric name: IC50

| Compound | Test target | Result |
| --- | --- | --- |
| CC(C)(C)OC(=O)N1CCNC(=N)C1 [Table 5: N, H, CO2-t-C4H9, H, H, H, H, hydrochloride] | ncNOS (Homo sapiens, UniProt P29475) | > 50 µM |
| CC(=O)NCC1CNC(=N)CC1C (mixture of isomers) [Table 5: CH, H, CH3, CH2NHAc, H, H, H, acetic acid salt] | ncNOS (Homo sapiens, UniProt P29475) | ≤ 50 µM |
| CC1CC(=N)NCC1C(=O)O (mixture of isomers) [Table 5: CH, H, CH3, CO2H, H, H, H, acetic acid salt] | ncNOS (Homo sapiens, UniProt P29475) | ≤ 10 µM |
| NC1=N[C@H]2CCCC[C@H]2CC1 (relative stereo) [Table 5: CH2, H, H, cis-(CH2)4, H, H, hydrochloride] | ncNOS (Homo sapiens, UniProt P29475) | ≤ 1 µM |
| N=C1CN[C@@H]2CCCC[C@@H]2N1 (relative stereo) [Table 5: N, H, H, cis-(CH2)4, H, H, 2-Imino-decahydro-cis-quinoxaline] | ncNOS (Homo sapiens, UniProt P29475) | > 50 µM |
| N=C1CC[C@@H]2CCCC[C@H]2N1 (relative stereo) [Table 5: CH2, H, H, trans-(CH2)4, H, H, hydrochloride] | ncNOS (Homo sapiens, UniProt P29475) | ≤ 1 µM |

###

The entries below come with measured pIC50 values attached.
# Test target: ecNOS (Homo sapiens)
# Experiment notes: NOS activity assay, ecNOS (L-[3H]citrulline formation)
# Format: biochemical
# Measurement conditions: Table 5; read-out: IC50 ecNOS
pIC50: −log10 of the molar value. Counter-ions that a name gives are not always drawn.
Metric name: pIC50

| Compound | Result |
| --- | --- |
| C[C@H]1CC(=N)NC[C@H]1O [Table 5: CH, H, (S)CH3, (S)OH, H, H, H, hydrochloride] | ≥ 5.00 |
| CC1CNC(=N)C(C)C1 (stereo not drawn) [Table 5: CH2, CH3, H, CH3, H, H, H, hydrochloride] | ≥ 4.30 |
| CC(=O)NC1CNC(=N)CC1C (mixture of isomers) [Table 5: CH, H, CH3, NHAc, H, H, H, acetic acid salt] | < 4.30 |
| N=C1CNCCN1 [Table 5: N, H, H, H, H, H, H, 2-Iminopiperazine hydrochloride] | < 4.30 |
| NC1=Nc2ccccc2CC1 [Table 5: CH2, H, H, (CH)4, H, H, hydrochloride] | < 4.30 |
| CCC[C@@H]1C(=N)NCC[C@@H]1C (relative stereo) [Table 5: CH, n-C3H7, CH3, H, H, H, H, hydrochloride] | < 4.30 |
| COC(=O)C1CNC(=N)CC1C (mixture of isomers) [Table 5: CH, H, CH3, CO2CH3, H, H, H, acetic acid salt] | < 4.30 |
| CCCC1CCN=C(N)C1 (stereo not drawn) [Table 5: CH, H, n-C3H7, H, H, H, H, 2-Imino-4-propylpiperidine hydrochloride] | < 4.30 |
| CC1(C)CCC(=N)NC1 [Table 5: CH2, H, H, (CH3)2, H, H, H, hydrochloride] | ≥ 4.30 |
| NC1=NCCc2ccccc21 | ≥ 4.30 |
| CC(=O)NCC1CNC(=N)CC1C (mixture of isomers) [Table 5: CH, H, CH3, CH2NHAc, H, H, H, acetic acid salt] | < 4.30 |
| CC1CC(=N)NCC1C(=O)O (mixture of isomers) [Table 5: CH, H, CH3, CO2H, H, H, H, acetic acid salt] | ≥ 4.30 |
| CC(C)(C)OC(=O)N1CCNC(=N)C1 [Table 5: N, H, CO2-t-C4H9, H, H, H, H, hydrochloride] | < 4.30 |
| CC1CNC(=N)CC1C (stereo not drawn) | ≥ 6.00 |
| N=C1CSCCN1 [Table 5: S, H, --, H, H, H, H, 3-Iminothiomorpholine hydrochloride] | ≥ 5.00 |

###

# Test target: ecNOS (Homo sapiens, UniProt P29474)
# Experiment notes: NOS activity assay, ecNOS (L-[3H]citrulline formation)
# Type: biochemical
pIC50: −log10 of the molar value. Where a name gives a salt, the structure may show the parent alone.

| Compound | pIC50 |
| --- | --- |
| N=C1CNC2CCCCC2N1 (stereo not drawn) | < 4.30 |
| C[C@H]1CCC(=N)NC1 [Table 5: CH2, H, H, (S)CH3, H, H, H, hydrochloride] | ≥ 5.00 |
| CC1CCC(N)=NC1 (stereo not drawn) [Table 5: CH2, H, H, CH3, H, H, H, 2-Imino-5-methylpiperidine hydrochloride] | ≥ 5.00 |

###

# Test target: UniProt P35228
# Experiment notes: NOS activity assay, iNOS (L-[3H]citrulline formation)
# Type: biochemical
# Measurement conditions: Table 5; read-out: IC50 iNOS
Structures can show the parent of a compound that is named as a salt.
The entries below come with measured IC50 values attached.

| Molecule | IC50 |
| --- | --- |
| N=C1CNCCN1 [Table 5: N, H, H, H, H, H, H, 2-Iminopiperazine hydrochloride] | ≤ 50 µM |
| N=C1CC[C@@H]2CCCC[C@H]2N1 (relative stereo) [Table 5: CH2, H, H, trans-(CH2)4, H, H, hydrochloride] | ≤ 1 µM |
| CC1(C)CCC(=N)NC1 [Table 5: CH2, H, H, (CH3)2, H, H, H, hydrochloride] | ≤ 10 µM |
| N=C1CSCCN1 [Table 5: S, H, --, H, H, H, H, 3-Iminothiomorpholine hydrochloride] | ≤ 1 µM |
| COC(=O)C1CNC(=N)CC1C (mixture of isomers) [Table 5: CH, H, CH3, CO2CH3, H, H, H, acetic acid salt] | ≤ 10 µM |
| NC1=NCCc2ccccc21 [Table 5: C, (CH)4, H, H, H, H] | ≤ 10 µM |
| C[C@H]1CC(=N)NC[C@H]1O [Table 5: CH, H, (S)CH3, (S)OH, H, H, H, hydrochloride] | ≤ 1 µM |
| CC(C)(C)OC(=O)N1CCNC(=N)C1 [Table 5: N, H, CO2-t-C4H9, H, H, H, H, hydrochloride] | ≤ 50 µM |
| CO[C@@H]1CNC(=N)C[C@@H]1C [Table 5: CH, H, (S)CH3, (S)OCH3, H, H, H, hydrochloride] | ≤ 1 µM |

###

# Test target: ecNOS (Homo sapiens)
# Experiment notes: NOS activity assay, ecNOS (L-[3H]citrulline formation)
# Assay type: biochemical
# Measurement conditions: Table 4; read-out: IC50 ecNOS
Structures can show the parent of a compound that is named as a salt.

| Compound | Test target | IC50 |
| --- | --- | --- |
| CCCC1CC(N)=NC1CC (stereo not shown) [Table 4: H, n-C3H7, C2H5, H, H, hydrochloride] | ecNOS (Homo sapiens) | > 50 µM |
| CCC1CN=C(N)C1C (stereo not shown) [Table 4: CH3, C2H5, H, H, H, hydrochloride] | ecNOS (Homo sapiens) | > 50 µM |
| CC1(C)CCC(=N)N1 [Table 4: H, H, (CH3)2, H, H, hydrochloride] | ecNOS (Homo sapiens) | ≤ 50 µM |
| N=C1CC[C@@H]2CCCN12 [Table 4: H, H, (CH2)3, H, 5-(S)-2-Imino-1-aza-bicyclo(3.3.0)octane] | ecNOS (Homo sapiens) | ≤ 50 µM |
| Oc1ccc(CCNC2=NCCC2)cc1O [Table 4: H, H, H, H, C2 H4 Ph-3,4-(OH)2, hydrochloride] | ecNOS (Homo sapiens) | > 50 µM |
| N=C(N)CCNC(=O)C1CCC(=N)N1 (stereo not shown) | ecNOS (Homo sapiens) | > 50 µM |
| CCCC1CC(N)=NC1C (stereo not shown) [Table 4: H, n-C3H7, CH3, H, H, hydrochloride] | ecNOS (Homo sapiens) | > 50 µM |
| N=C1NCCC1S (stereo not shown) [Table 4: SH, H, H, H, H] | ecNOS (Homo sapiens) | ≤ 50 µM |
| CCCC1N=C(N)CC1C (stereo not shown) [Table 4: H, CH3, n-C3H7, H, H, hydrochloride] | ecNOS (Homo sapiens) | ≤ 50 µM |
| CCC1N=C(N)CC1C (stereo not shown) [Table 4: H, CH3, C2H5, H, H, hydrochloride] | ecNOS (Homo sapiens) | ≤ 1 µM |
| CCC1CCC(=N)N1 (stereo not shown) [Table 4: H, H, C2H5, H, H] | ecNOS (Homo sapiens) | ≤ 10 µM |
| CCCC1CN=C(N)C1 (stereo not shown) [Table 4: H, n-C3H7, H, H, H, hydrochloride] | ecNOS (Homo sapiens) | > 50 µM |
| CC(=O)OC[C@H]1CCC(=N)N1 [Table 4: H, H, (R)-CH2OAc, H, H, hydrochloride] | ecNOS (Homo sapiens) | > 50 µM |
| CC1CCC(N)=N1 (stereo not shown) [Table 4: H, H, CH3, H, H, hydrochloride] | ecNOS (Homo sapiens) | ≤ 10 µM |
| CC1CC(N)=NC1C (single isomer, unassigned) [Table 4: H, CH3, CH3(A), H, H] | ecNOS (Homo sapiens) | ≤ 1 µM |
| CC1CCN=C1N (stereo not shown) [Table 4: CH3, H, H, H, H, hydrochloride] | ecNOS (Homo sapiens) | ≤ 10 µM |
